target: HERG (Homo sapiens); test: HERG Patch Clamp EP; conditions: human, HEK cells stably overexpressing HERG
Sequence (Q12809 whole entry): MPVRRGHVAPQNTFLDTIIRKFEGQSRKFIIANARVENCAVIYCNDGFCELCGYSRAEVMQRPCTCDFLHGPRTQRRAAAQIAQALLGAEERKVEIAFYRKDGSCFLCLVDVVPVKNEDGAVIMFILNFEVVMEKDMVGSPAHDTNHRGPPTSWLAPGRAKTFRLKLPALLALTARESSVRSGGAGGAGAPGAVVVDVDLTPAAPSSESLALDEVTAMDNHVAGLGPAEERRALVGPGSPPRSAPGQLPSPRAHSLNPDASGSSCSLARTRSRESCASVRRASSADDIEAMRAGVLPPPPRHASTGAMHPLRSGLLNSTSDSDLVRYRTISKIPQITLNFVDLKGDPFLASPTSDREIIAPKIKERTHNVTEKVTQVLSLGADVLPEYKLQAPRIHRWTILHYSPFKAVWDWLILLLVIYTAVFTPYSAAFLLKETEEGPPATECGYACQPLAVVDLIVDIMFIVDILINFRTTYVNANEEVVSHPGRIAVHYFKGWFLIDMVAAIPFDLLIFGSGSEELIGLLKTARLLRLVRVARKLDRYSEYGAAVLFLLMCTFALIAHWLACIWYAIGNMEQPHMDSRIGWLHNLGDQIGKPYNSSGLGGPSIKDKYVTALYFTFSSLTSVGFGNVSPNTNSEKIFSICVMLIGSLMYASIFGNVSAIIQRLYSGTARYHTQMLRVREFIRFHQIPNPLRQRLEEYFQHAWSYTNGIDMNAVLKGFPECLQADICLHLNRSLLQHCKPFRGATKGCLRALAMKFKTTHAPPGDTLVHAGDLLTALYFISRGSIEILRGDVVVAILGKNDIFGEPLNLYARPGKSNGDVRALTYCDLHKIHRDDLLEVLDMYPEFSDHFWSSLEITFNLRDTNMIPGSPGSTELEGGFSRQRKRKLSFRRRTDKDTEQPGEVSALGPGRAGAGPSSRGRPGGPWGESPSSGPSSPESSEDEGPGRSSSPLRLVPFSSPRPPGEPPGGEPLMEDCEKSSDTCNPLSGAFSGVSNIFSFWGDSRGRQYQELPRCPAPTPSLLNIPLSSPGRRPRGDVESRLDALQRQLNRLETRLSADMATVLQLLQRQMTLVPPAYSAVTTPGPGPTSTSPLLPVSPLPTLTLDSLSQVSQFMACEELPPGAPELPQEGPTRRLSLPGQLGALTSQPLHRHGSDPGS
Class (required): determined from inhibition at 10 µM; valid ranges are lower level (below 20%), middle level (20% to below 60%), upper level (60% or more)

The examples below pair each entry with its known result.
COc1ccc(CCN2C(=O)N(NS(=O)(=O)CC(=O)NCC3CC3)CC2c2ccc(OC)cc2)cc1 (stereo not drawn) :: lower level
COc1ccc(CCN2C(=O)N(NCc3ccccc3)CC2c2ccc(C)c(C)c2)cc1 (stereo not drawn) :: upper level
COc1ccc(CCCN2C(=O)N(NS(=O)(=O)CC(N)=O)CC2c2ccc(C3CC3)cc2)cc1 (stereo not drawn) :: middle level
COc1ccc(CCN2C(=O)N(NS(C)(=O)=O)C[C@H]2c2ccc(OC(F)F)cc2)cc1 :: upper level
COc1ccc(CCN2C(=O)N(NCc3ccncc3)CC2c2ccc(C)c(C)c2)cc1 (stereo not drawn) :: upper level
COc1ccc(CCN2C(=O)N(NS(C)(=O)=O)CC2c2ccc3c(c2)OC(C)(C)O3)cc1 (stereo not drawn) :: lower level
COc1ccc(CCN2C(=O)N(NS(=O)(=O)CF)CC2c2ccc3c(c2)OCCO3)cc1 (stereo not drawn) :: lower level
COc1ccc(CCN2C(=O)N(NS(C)(=O)=O)CC2c2ccc(OC)cc2)cc1 (stereo not drawn) :: middle level
COCCN(CCOC)C(=O)CS(=O)(=O)NN1CC(c2ccc(C3CC3)cc2)N(CCc2ccc(OC)cc2)C1=O (stereo not drawn) :: middle level
COc1ccc(CCN2C(=O)N(NS(=O)(=O)CF)CC2c2ccc(C3CC3)cc2)cc1 (stereo not drawn) :: middle level

Ask: For this compound, which bin applies? COc1ccc(CCN2C(=O)N(NC(=O)OC(C)(C)C)CC2c2ccc(C)c(C)c2)cc1 (stereo not drawn)
Reply: middle level

Ask: For this compound, which bin applies? COc1ccc(CCCN2C(=O)N(NS(C)(=O)=O)CC2c2ccc(C3CC3)cc2)cc1 (stereo not drawn)
Reply: upper level

Ask: For this compound, which bin applies? COc1ccc(CCN2C(=O)N(NS(C)(=O)=O)CC2c2ccc(C(C)(C)C)cc2)cc1 (stereo not drawn)
Reply: upper level

Ask: For this compound, which bin applies? `CCC1(CC)CN(NS(C)(=O)=O)C(=O)N1CCc1ccc(OC)cc1`
Reply: middle level

Ask: For this compound, which bin applies? CS(=O)(=O)NN1CC(c2ccc(C3CC3)cc2)N(CCCc2ccccc2)C1=O (stereo not drawn)
Reply: middle level

Hey, just so you know, these numbers are from patent US7504517B2.
